Reference source for all entries: PubChem BioAssay (NCI)

- Test system: NCI/ADR-RES ovarian
- PROTOCOL SUMMARY: NCI tumour cell line growth inhibition, 48 h
For each record, write down the corresponding TGI.

Lab note: need TGI with NCI/ADR-RES ovarian for entry Cc1nc2cccc(F)c2c(=O)n1C1CCCCNC1=O (stereo not drawn) , please look it up.
> 10 µM

Entry CC(=O)OCC1OC(SC2=N/C(=C\c3cc4c(=O)c5ccccc5sc4s3)C(=O)N2c2ccccc2)C(OC(C)=O)C(OC(C)=O)C1OC(C)=O (stereo not drawn) , system NCI/ADR-RES ovarian: what TGI was measured?
> 100 µM

Identify the measured TGI of COc1ccc(/C=C2\NC(=S)N(CN3CCCCC3)C2=O)cc1 for NCI/ADR-RES ovarian.
> 100 µM

====

Answer each item with its documented TGI.
- Test system: OVCAR-5 ovarian
- PROTOCOL SUMMARY: NCI tumour cell line growth inhibition, 48 h

Please report the recorded TGI for Cn1c(=S)[nH]c2sc3c(c2c1=O)CCSC3 .
> 100 µM

Item COc1ccc(/C=C2\NC(=S)N(CN3CCCCC3)C2=O)cc1 has what recorded TGI?
> 100 µM

Can you share its TGI? I mean this compound: CC(=O)CCCCC(=O)Nc1ccc(CC(NC(=O)OC(C)(C)C)C(=O)NCC(=O)OCc2ccccc2)cc1 (stereo not drawn)
> 100 µM

====

- Tested on: MOLT-4 leukemia
- PROTOCOL SUMMARY: NCI tumour cell line growth inhibition, 48 h
PROPERTY: TGI (µM)
Numbers only; they are read as µM.

Reported TGI, compound Cc1c(C(=O)C/C(=N\O)C(=O)Nc2cc(Cl)c(Cl)cc2Cl)[n+](=O)c2ccccc2n1[O-] : ____
32.8

TGI lookup needed for Oc1cccc2ccc(N/N=C/c3cc(CN4CCCCC4)c(O)c4ncccc34)nc12 , thanks.
3.82

What measured TGI goes with Cc1ccccc1[P+](Cc1ccccc1)(c1ccccc1)c1ccccc1 ?
17.6

====

- System: RPMI-8226 leukemia
- PROTOCOL SUMMARY: NCI tumour cell line growth inhibition, 48 h
PROPERTY: TGI

State the recorded TGI for this entry: C[C@]12CC[C@@H]3c4ccc(OP(=O)(O)O)cc4CC[C@H]3[C@@H]1CCC2=O
> 100 µM

For the molecule COc1ccc2c(c1)/C(=C\c1c(C)nc3sccn13)C(=O)N2 , what TGI is on record?
> 26.4 µM

// TGI lookup, key: CCCNC1=C(C(=O)OCC)C(=O)CO1
> 100 µM

Query (molecule): CCOC(=O)c1ccc(N=C2C(=S)N(c3ccc(C(=O)OCC)cc3)C(=N)N2/N=C/c2ccccc2)cc1 ; field requested: TGI
> 100 µM

Consider the molecule shown here: O=C(/C=C/c1ccccc1)CCN1CCN(CCC(=O)/C=C/c2ccccc2)CC1 What is its recorded TGI?
> 100 µM

Which measured TGI value corresponds to NCCOCCOCCNc1nc(Cc2ccccc2)nc(NCCCN2CCCC2=O)n1 ?
> 100 µM

====

- Test system: SF-268 CNS
- PROTOCOL SUMMARY: NCI tumour cell line growth inhibition, 48 h
Can you tell me log10(TGI) for the items I'm about to list?
Please interpret these as log10 of TGI where TGI is in µM.

If you can, please state the reported log10(TGI) value of CC(=O)N1C(=O)/C(=C\C(=O)c2ccc([N+](=O)[O-])cc2)c2ccccc21 .
1.69

Give the measured log10(TGI) of COC(O)C(=O)c1c2c(cc3c1CC1(Cc4cc5c(cc4C1)CCC5)C3)CCC2 (stereo not drawn) .
1.56

Requested read-out: log10(TGI). Entry: O=C1C(Br)=CC2(C=C1Br)CCNC1=C2C(=O)c2ccccc2C1=O
1.80

For the compound shown here, Cc1ccc(-c2cn3ccnc3c(-c3ccc(Cl)cc3)n2)cc1 , give the reported log10(TGI).
1.07

For the compound CCCNC(=O)c1cc(NC(=O)c2cc(NC(=O)/C=C/c3ccccc3)c(OC)c(OC)c2)c(OC)c(OC)c1 , what log10(TGI) is on record?
0.94

Reported log10(TGI), compound O=C1c2cccnc2C(=O)c2nc3cc(N4CCN(C5CC5)CC4)ccc3nc21 : ____
0.69

Which log10(TGI) value belongs to CSc1ncc2c(C#N)c3sc4ccccc4n3c(=O)c2n1 ?
1.72

Requested read-out: log10(TGI). Entry: CCCc1[nH]c(SCCCCCCCCSc2nc(-c3ccc(F)cc3)c(CCC)[nH]2)nc1-c1ccc(F)cc1
1.23

Could you share which log10(TGI) value was measured for COc1cc(OC)c2c(c1)C(=O)C(CC(C)O)=CC2=O (stereo not drawn) ?
1.52

GET /values?readout=log10(TGI)&item= CC1SC(c2ccccc2)N(CCc2cccs2)C1=O (stereo not drawn)
1.21
